testTarget: human recombinant CD38 (hydrolase activity) (Homo sapiens, UniProt P28907)
Sequence (P28907 whole entry): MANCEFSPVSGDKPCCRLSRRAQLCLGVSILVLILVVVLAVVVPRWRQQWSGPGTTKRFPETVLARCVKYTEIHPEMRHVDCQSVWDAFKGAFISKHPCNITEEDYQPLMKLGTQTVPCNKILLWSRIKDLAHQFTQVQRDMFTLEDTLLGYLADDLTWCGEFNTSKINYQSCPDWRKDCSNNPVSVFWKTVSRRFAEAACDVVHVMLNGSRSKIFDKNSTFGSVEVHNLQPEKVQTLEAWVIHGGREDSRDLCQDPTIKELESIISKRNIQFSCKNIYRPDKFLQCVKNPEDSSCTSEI
assayComment: Human recombinant CD38 fluorometric enzyme assay, hydrolase activity (εNAD+)
Type: biochemical
conditionsUsed: 50.0 μM compound; 10 nM recombinant CD38, 10 μM εNAD+
metricName: remaining activity at 50 µM (%)

compound: CC1=CC(C)(C)N=C(Nc2nc(-c3ccccc3)c3cc(C)cc(C)c3n2)N1 [Compound 11]
testTarget: human recombinant CD38 (hydrolase activity) (Homo sapiens, UniProt P28907)
remaining activity at 50 µM, %: 49.1

compound: CC1=CC(C)(C)N=C(Nc2nc(C)c3cc(C)cc(C)c3n2)N1 [Compound 1]
testTarget: human recombinant CD38 (hydrolase activity) (Homo sapiens, UniProt P28907)
remaining activity at 50 µM, %: 61.6

compound: Cc1cc(C)c2nc(Nc3nc(C)c(C)c(O)n3)nc(C)c2c1 [Compound 4]
testTarget: human recombinant CD38 (hydrolase activity) (Homo sapiens, UniProt P28907)
remaining activity at 50 µM, %: 58.2

compound: CCc1ccc2c(C)nc(NC3=NC(C)(C)C=C(C)N3)nc2c1 [Compound 13]
testTarget: human recombinant CD38 (hydrolase activity) (Homo sapiens, UniProt P28907)
remaining activity at 50 µM, %: 48.1

compound: Cc1nc(Nc2nc(CCC(C)C)cc(=O)[nH]2)nc2ccccc12 [Compound 7]
testTarget: human recombinant CD38 (hydrolase activity) (Homo sapiens, UniProt P28907)
remaining activity at 50 µM, %: 60.3
